Below, each of the compounds is paired with its reported growth value.
- Tested on: NCI-H522 lung
- Assay Notes: NCI-60 one-dose screen, 48 h (100 = growth as untreated, 0 = no growth, -100 = all killed)
- Condition Details: 10 µM unless noted
The panel holds about 83,000 compounds, 20% with a hit somewhere; the sample as a whole holds those more often.
Respond with the bare value in %.

Some compounds with recorded growth:
O=S(=O)(NCCCNc1nccc(-c2c(-c3ccc(F)c(O)c3)nc3sccn23)n1)c1ccc(F)cc1 : -9.08
O=C(CN1CCOCC1)Nc1ccc2ncnc(Nc3ccc(Oc4cccc(F)c4)c(Cl)c3)c2c1 : 20.7
Fc1ccc(C2CC(c3cccc(Nc4ccncc4)c3)=NN2c2ccccc2)cc1 (stereo not given) : 75.8
COc1cc(-c2nc3sccn3c2-c2ccnc(NCCNS(=O)(=O)c3ccc(F)cc3)n2)ccc1F : -6.6

Ask | Let me know recorded growth for O=S(=O)(NCCCNc1nccc(-c2c(-c3ccccc3)nc3occn23)n1)c1ccc(Cl)cc1 , thanks.
Reply | 77.9

====

- Tested on: NCI-H522 lung
- Assay Notes: NCI-60 one-dose screen, 48 h (100 = growth as untreated, 0 = no growth, -100 = all killed)
- Condition Details: 10 µM unless noted
The panel holds about 83,000 compounds, 20% with a hit somewhere; the sample as a whole holds those more often.
Measured Quantity: growth (%)
Respond with the bare value in %.

O=C(Nc1ccc2cc3ccc(NC(=O)N4CCCCCC4)cc3nc2c1)N1CCCCCC1 : -70.4
COc1ccc(C(O)c2cc3c(N)c(C(=O)Nc4ccccc4)sc3nc2C)cc1 (stereo not given) : -55.9
COc1cnccc1-c1nc2ccc3[nH]ncc3c2c2c1CCCC2 : 30.6
CCc1c(Nc2ccc(C)cc2)nc(N)[nH]c1=O : 90.5
COc1cc(/C=C/C(=O)c2c(C)oc3nc[nH]c(=O)c23)ccc1O : 101

Ask | Let me know recorded growth for COc1cc(COC(=O)CCCCC[P+](c2ccccc2)(c2ccccc2)c2ccccc2)c(OC)c2c1OCO2 , thanks.
Reply | 50.2

Ask | Let me know recorded growth for CCCCCCOc1ccc(C(=N)N(CCCC)CCCC)c2ccccc12 , thanks.
Reply | -84.6

Ask | Let me know recorded growth for COc1ccc(C(=O)c2cc(C)c(OC)c(C)c2)c(OC)c1N(C(=O)C(Cl)Cl)C(=O)C(Cl)Cl , thanks.
Reply | 11

Ask | Let me know recorded growth for CC1(C)CN(Cc2ccccc2)CCN1Cc1ccccc1 , thanks.
Reply | 91.8

Ask | Let me know recorded growth for CC(=O)c1c(-c2ccc(OC(F)(F)F)cc2)nc2ccccn12 , thanks.
Reply | 51.5

Ask | Let me know recorded growth for Cn1c(COC(=O)NCCn2ccnc2)nc2c(N3CCOCC3)nc(-c3ccccc3)nc21 , thanks.
Reply | -54.7

Ask | Let me know recorded growth for COc1ccc(C2CC(c3cccc(Nc4ccncc4)c3)=NN2c2cc(Cl)cc(Cl)c2)cc1 (stereo not given) , thanks.
Reply | 4.77

Ask | Let me know recorded growth for Cc1ccc(C(c2c(O)c3cc(Br)ccc3[nH]c2=O)c2c(O)c3cc(Br)ccc3[nH]c2=O)cc1 , thanks.
Reply | 77.8

====

- System: SK-MEL-2 melanoma
- Assay Notes: NCI-60 one-dose screen, 48 h (100 = growth as untreated, 0 = no growth, -100 = all killed)
- Condition Details: 10 µM unless noted
This is part of a sample that, as a whole, favours compounds with a hit. Of some 83,000 tested, about 20% had one in any assay.
Record t whenever growth is at 90% or higher; record f when lower.

Solved cases below.
CN1CCN(c2cc(F)c(NC3=C(Cl)C(=O)c4ncccc4C3=O)c(F)c2)CC1 : f
C=C(C)[C@H]1CC/C(C)=C/CC[C@]2(C)O[C@H]2CC/C(COC(=O)[C@@H](OC(C)=O)[C@H](NC(=O)c2ccccc2)c2ccccc2)=C\[C@@H]1O : t
CC(=O)O[C@]1(C(C)=O)CC[C@H]2[C@@H]3C=C(Cl)C4=CC(=O)CC[C@]4(C)[C@H]3CC[C@@]21C : t
CC(=O)N1c2ccccc2NC2=C(C(=O)N(Cc3ccccc3)C2(C)C)C1c1ccco1 (stereo not drawn) : f

Shift focus to the following entry.
Ask | Determine whether measured growth meets or exceeds 90% for O=C1Nc2c(ccc(Cl)c2Cl)/C1=C/c1ccc(O)cc1
Reply | t
